This section presents molecules with their documented MIC values.
system: EC882 E. coli imp; test: broth dilution MIC, E. coli EC882; type: cell-based; conditions: Escherichia coli
Entry rule: numbers only, all in µg/mL.

Consider the following illustrative entries.
CC[C@H]1OC(=O)[C@H](C)C(=O)C[C@@H](O[C@@H]2OC(C)CC(N(C)C)C2O)[C@](C)(OC)C[C@@H](C)CN[C@H](C)[C@H]2N(CCCCn3cc(-c4ccccn4)nn3)C(=O)O[C@]12C (stereo partly shown) : 0.25
CC[C@H]1OC(=O)[C@H](C)C(=O)[C@H](C)[C@@H](O[C@@H]2OC(C)CC(N(C)C)C2O)[C@](C)(OC)C[C@@H](C)CN[C@H](C)[C@H]2N(CCCCn3cc(-c4ccccn4)nn3)C(=O)O[C@]12C (stereo partly shown) : 0.0625

Okay, next one:
Problem: Query: MIC; subject: CC[C@H]1OC(=O)[C@H](C)C(=O)C[C@@H](O[C@@H]2OC(C)CC(N(C)C)C2O)[C@](C)(OC)C[C@@H](C)CN(C(C)=O)[C@H](C)[C@H]2N(CCCCn3cc(-c4nc5ccccc5s4)nn3)C(=O)O[C@]12C (stereo partly shown)
Result: 0.5
